// data source = patent US20260234147A1

Molecular target: α2C adrenergic receptor (Homo sapiens)
Construct: Eurofins Cerep (contract screening)
Assay: Radioligand binding assay (Eurofins Cerep), [3H]RX 821002 displacement
Settings: Table A1, data summary #1; read-out: Alpha2C Ki ± SEM
Test Readout: Ki (nM)
# output: bare number, implied unit nM

// recorded Ki for CC[C@@H]1CN2CCc3c([nH]c4cccc(OC)c34)[C@@H]2C[C@@H]1/C(=C\OC)C(=O)N(C)C : 420

###

Target: α2C adrenergic receptor (Homo sapiens, UniProt P18825)
Construct: Eurofins Cerep (contract screening)
Sequence (P18825 whole entry): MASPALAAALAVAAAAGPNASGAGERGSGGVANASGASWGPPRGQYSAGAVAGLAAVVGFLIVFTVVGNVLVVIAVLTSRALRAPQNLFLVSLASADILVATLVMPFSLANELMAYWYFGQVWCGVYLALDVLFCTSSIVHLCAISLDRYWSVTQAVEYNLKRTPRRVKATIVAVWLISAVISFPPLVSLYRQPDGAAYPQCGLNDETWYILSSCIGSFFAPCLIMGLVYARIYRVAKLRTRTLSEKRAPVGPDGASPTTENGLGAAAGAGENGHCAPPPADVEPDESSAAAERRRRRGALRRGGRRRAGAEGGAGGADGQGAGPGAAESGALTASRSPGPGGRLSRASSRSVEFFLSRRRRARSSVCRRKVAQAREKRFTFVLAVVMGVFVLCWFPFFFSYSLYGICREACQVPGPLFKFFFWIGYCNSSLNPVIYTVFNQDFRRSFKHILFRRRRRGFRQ
Assay: Radioligand binding assay (Eurofins Cerep), [3H]RX 821002 displacement
Details: Alpha2C Ki ± SEM (nM), Table B1; mean ± SEM, 3 independent experiments
Test Readout: Ki (nM)
# output: bare number, implied unit nM

COC(=O)C=C1CCN2CCC(O)(c3ccccc3OC)CC2C1 (single isomer, unassigned) [SG-01-005B] :: 46.7

Now for another entry.
Given the compound COC(=O)CC1CCN2CCC(c3ccccc3OC)CC2C1 (centres unmarked) and test system α2C adrenergic receptor (Homo sapiens, UniProt P18825), the measured Ki is 13.6

###

Target: hKOR (Homo sapiens)
Sequence (P41145 whole entry): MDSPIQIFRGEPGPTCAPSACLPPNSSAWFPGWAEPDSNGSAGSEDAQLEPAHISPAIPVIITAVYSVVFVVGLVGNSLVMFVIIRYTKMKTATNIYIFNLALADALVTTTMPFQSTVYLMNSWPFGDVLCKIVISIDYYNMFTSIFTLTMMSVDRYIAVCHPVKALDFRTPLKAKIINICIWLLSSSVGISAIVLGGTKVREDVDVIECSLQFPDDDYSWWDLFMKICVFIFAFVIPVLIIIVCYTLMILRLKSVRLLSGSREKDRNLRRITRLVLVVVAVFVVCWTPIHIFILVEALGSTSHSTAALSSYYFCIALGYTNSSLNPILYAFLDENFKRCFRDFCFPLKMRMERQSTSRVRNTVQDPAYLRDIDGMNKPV
Assay: Radioligand binding assay (Eurofins Cerep), [3H]U69,593 displacement
Conditions: Table A1, data summary #1; read-out: KOR Ki ± SEM
compounds and their reported Ki

// recorded Ki for CC[C@@H]1CN2CCc3c([nH]c4cccc(OC)c34)[C@@H]2C[C@@H]1/C(=C\OC)C(=O)n1cccc1 : 5.8 µM

// recorded Ki for CC[C@@H]1CN2CCc3c([nH]c4cccc(OC)c34)[C@@H]2C[C@@H]1/C(=C\OC)C(=O)N1CCCC1 : > 10 µM

// recorded Ki for CC[C@@H]1CN2CCc3c([nH]c4cccc(OC)c34)[C@@H]2C[C@@H]1/C(=C\OC)C(=O)NC1CCCCC1 : 2.79 µM

// recorded Ki for CC[C@@H]1CN2CC[C@]3(Nc4cccc(OC)c4C3=O)[C@@H]2C[C@@H]1/C(=C\OC)C(=O)OC [Mitragynine pseudoindoxyl, reference compound] : 0.15 µM

// recorded Ki for CC[C@@H]1CN2CCc3c([nH]c4cccc(OC)c34)[C@@H]2C[C@@H]1/C(=C\OC)C(=O)N1CCCCC1 : 7.46 µM

###

Target: UniProt:P35372
Experiment: Cyclic adenosine 3′,5′-monophosphate (cAMP) assay in hMOR-CHO cells
Type: cell-based
Settings: N=1, control agonist DAMGO
Test Readout: functional activity in cAMP assay

CC[C@@H]1CN2CCc3c([nH]c4cccc(OC)c34)[C@@H]2C[C@@H]1/C(=C\OC)C(=O)N(C)C1CCCC1 :: antagonists
CC[C@@H]1CN2CCc3c([nH]c4cccc(OC)c34)[C@@H]2C[C@@H]1/C(=C\OC)C(=O)N(C)C1CCCCC1 [SUSM-523] :: antagonists

###

Target: α2A adrenergic receptor (Homo sapiens, UniProt P08913)
Construct: Eurofins Cerep (contract screening)
Sequence (P08913 1-465): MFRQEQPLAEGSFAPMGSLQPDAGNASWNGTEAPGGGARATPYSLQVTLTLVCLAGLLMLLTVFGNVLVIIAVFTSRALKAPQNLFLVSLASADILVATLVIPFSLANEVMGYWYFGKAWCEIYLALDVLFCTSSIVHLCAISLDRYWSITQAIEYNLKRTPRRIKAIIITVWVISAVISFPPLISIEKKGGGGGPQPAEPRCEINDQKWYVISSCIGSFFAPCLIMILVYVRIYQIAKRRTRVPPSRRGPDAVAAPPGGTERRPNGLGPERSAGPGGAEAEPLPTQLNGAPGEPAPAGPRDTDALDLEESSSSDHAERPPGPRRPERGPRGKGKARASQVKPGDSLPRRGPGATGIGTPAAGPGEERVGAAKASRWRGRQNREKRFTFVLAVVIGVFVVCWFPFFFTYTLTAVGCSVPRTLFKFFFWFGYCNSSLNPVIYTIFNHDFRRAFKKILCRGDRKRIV
Test: Radioligand binding assay (Eurofins Cerep), [3H]RX 821002 displacement
Settings: Ki (nM ± SEM) a2A-AR, Table 3-3; 3 independent experiments
Test Readout: Ki (nM)
# output: bare number, implied unit nM

COC(=O)CC1CCN(CCc2c[nH]c3c(OC)cccc23)CC1 [Compound 3-42] :: 1300
COC(=O)CC1CCN(CCc2c[nH]c3ccccc23)CC1 [Compound 3-24] :: 1410

Now for another entry.
// recorded Ki for COC(=O)CC1CCN(CCc2c[nH]c3cccc(OC)c23)CC1 [Compound 3-22] : 229

###

Biological target: UniProt P41143
Assay: Radioligand binding assay (Eurofins Cerep), [3H]DADLE displacement
Details: Table B1′; read-out: DOR Ki ± SEM
compounds and their reported Ki

Example entries and their recorded answers appear below.
COc1ccccc1C1(O)CCN2CCC(=O)CC2C1 (stereo not drawn) :: > 10 µM
COC(=O)C=C1CCN2CCC(O)(c3cccc(OC)c3)CC2C1 (stereo not drawn) [drawing 179] :: > 10 µM
COC(=O)C=C1CCN2CCC(O)(c3ccccc3)CC2C1 (stereo not drawn) [drawing 176] :: > 10 µM

// recorded Ki for COC(=O)CC1CCN2CCC(O)(c3ccccc3)CC2C1 (stereo not drawn) [drawing 173] : > 10 µM

// recorded Ki for CC[C@@H]1CN2CCc3c([nH]c4ccccc34)[C@@H]2C[C@@H]1/C(=C\OC)C(=O)OC [Corynantheidine, reference compound] : 2.41 µM

// recorded Ki for COC(=O)CC1CCN2CCC(O)(c3ccc(F)cc3)CC2C1 (stereo not drawn) : > 10 µM

// recorded Ki for CC[C@@H]1CN2CCc3c([nH]c4cccc(OC)c34)[C@@H]2C[C@@H]1/C(=C\OC)C(=O)OC [Mitragynine, mitragynine, reference compound] : 6.8 µM

// recorded Ki for COC(=O)CC1CCN2CC=C(c3ccccc3)CC2C1 (stereo not drawn) : > 10 µM

// recorded Ki for COC(=O)CC1CCN2CCC(c3ccccc3OC)CC2C1 (stereo not drawn) [drawing 171] : > 10 µM

###

Target: hMOR (Homo sapiens)
Assay: Radioligand binding assay (Eurofins Cerep), [3H]DAMGO displacement
Settings: Table A1, data summary #1; read-out: MOR Ki ± SEM
Binarize Ki at 4000 nM; below is rule met, at or above is rule not met.

CC[C@@H]1CN2CCc3c([nH]c4cccc(OC)c34)[C@@H]2C[C@@H]1/C(=C\OC)C(=O)N(C)C [SUSM-501] :: rule met
CC[C@@H]1CN2CC[C@]3(Nc4cccc(OC)c4C3=O)[C@@H]2C[C@@H]1/C(=C\OC)C(=O)OC [Mitragynine pseudoindoxyl, reference compound] :: rule met
CC[C@@H]1CN2CCc3c([nH]c4cccc(OC)c34)[C@@H]2C[C@@H]1/C(=C\OC)C(=O)N(CC)CC [SUSM-509] :: rule met

Moving on to the next compound.
Prompt: API: query returns whether the compound falls strictly under 4000 nM in Ki. Query: CC[C@@H]1CN2CCc3c([nH]c4cccc(OC)c34)[C@@H]2C[C@@H]1/C(=C\OC)C(=O)NC1CCCC1 [SUSM-506]
Response: rule met

###

Molecular target: hDOR (Homo sapiens, UniProt P41143)
Sequence (P41143 whole entry): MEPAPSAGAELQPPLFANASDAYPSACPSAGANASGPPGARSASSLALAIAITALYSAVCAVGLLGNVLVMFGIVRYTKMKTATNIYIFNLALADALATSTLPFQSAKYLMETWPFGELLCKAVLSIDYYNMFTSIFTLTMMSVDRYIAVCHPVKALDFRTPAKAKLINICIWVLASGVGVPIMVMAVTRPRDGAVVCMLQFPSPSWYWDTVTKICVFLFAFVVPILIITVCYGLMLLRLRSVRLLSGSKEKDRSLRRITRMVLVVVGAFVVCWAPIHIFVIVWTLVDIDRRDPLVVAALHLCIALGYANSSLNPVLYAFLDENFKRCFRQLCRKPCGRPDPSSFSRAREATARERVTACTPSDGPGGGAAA
Assay: Radioligand binding assay (Eurofins Cerep), [3H]DADLE displacement
Settings: Table 3-4; 3 independent experiments; read-out: Ki (nM ± SEM) DOR
Test Readout: Ki

Example entries and their recorded answers appear below.
COC=C(C(=O)OC)C1CCN(Cc2ccccc2)CC1 :: > 10000 nM
CO/C=C(/C(=O)OC)C1CCN(CCc2c[nH]c3ccccc23)CC1 :: > 10000 nM

Now for another entry.
Given the molecule COC(=O)CC1CCN(CCc2c[nH]c3ccccc23)CC1 and test system hDOR (Homo sapiens, UniProt P41143), the measured Ki is > 10000 nM

###

Molecular target: α2A adrenergic receptor (Homo sapiens, UniProt P08913)
Construct: Eurofins Cerep (contract screening)
Assay: Radioligand binding assay (Eurofins Cerep), [3H]RX 821002 displacement
Conditions: Ki (nM ± SEM) a2A-AR, Table 3-6; 3 independent experiments
molecules and their reported Ki
# output: bare number, implied unit nM

COC(=O)CC1CCN(CCc2c[nH]c3cccc(OC)c23)CC1 :: 229

// recorded Ki for COC(=O)NC1CCN(CCc2c[nH]c3ccccc23)CC1 : 5090

// recorded Ki for COC(=O)CN1CCN(CCc2c[nH]c3ccccc23)CC1 : 9760

// recorded Ki for COC(=O)CC1CCN(CCc2c[nH]c3ccccc23)CC1 : 1410

// recorded Ki for COCC(C(=O)OC)C1CCN(CCc2c[nH]c3ccccc23)CC1 (stereo not drawn) : 2760

// recorded Ki for CO/C=C(/C(=O)OC)C1CCN(CCc2c[nH]c3ccccc23)CC1 : 741

###

Target: hMOR (Homo sapiens, UniProt P35372)
Sequence (P35372 whole entry): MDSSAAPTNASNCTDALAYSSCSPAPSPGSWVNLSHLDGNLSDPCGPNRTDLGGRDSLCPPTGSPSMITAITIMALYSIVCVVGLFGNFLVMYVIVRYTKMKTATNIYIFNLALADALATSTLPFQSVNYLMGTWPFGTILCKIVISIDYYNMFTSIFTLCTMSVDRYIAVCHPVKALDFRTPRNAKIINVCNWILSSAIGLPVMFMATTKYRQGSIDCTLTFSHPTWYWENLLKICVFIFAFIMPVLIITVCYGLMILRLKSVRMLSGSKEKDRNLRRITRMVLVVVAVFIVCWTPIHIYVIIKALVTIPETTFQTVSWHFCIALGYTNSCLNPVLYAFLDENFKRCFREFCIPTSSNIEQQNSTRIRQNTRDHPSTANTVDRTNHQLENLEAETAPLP
Assay: Radioligand binding assay (Eurofins Cerep), [3H]DAMGO displacement
Settings: Table 3-5; 3 independent experiments; read-out: Ki (nM ± SEM) MOR
Test Readout: Ki

Example entries and their recorded answers appear below.
CO/C=C(/C(=O)OC)C1CCN(CCc2c[nH]c3ccccc23)CC1 [Compound 3-23] :: 451 nM
COC(=O)CC1CCN(CCc2c[nH]c3ccccc23)CC1 [Compound 3-24] :: 2230 nM
COC(=O)CC1CCN(CCc2c[nH]c3cccc(OC)c23)CC1 [Compound 3-22] :: > 10000 nM
COC=C(C(=O)OC)C1CCN(Cc2c[nH]c3ccccc23)CC1 [Compound 3-57] :: > 10000 nM
COC(=O)CC1CCN(Cc2c[nH]c3ccccc23)CC1 [Compound 3-58] :: 2700 nM

Given the compound COC(=O)CC1CCN(CC(=O)c2c[nH]c3cccc(OC)c23)CC1 [Compound 3-63] and test system hMOR (Homo sapiens, UniProt P35372), the measured Ki is > 10000 nM
